Some molecules, each annotated with its measured pIC50.
- assayed system: recombinant eIF4E (Homo sapiens (Human), UniProt P06730)
- Sequence (P06730 whole entry): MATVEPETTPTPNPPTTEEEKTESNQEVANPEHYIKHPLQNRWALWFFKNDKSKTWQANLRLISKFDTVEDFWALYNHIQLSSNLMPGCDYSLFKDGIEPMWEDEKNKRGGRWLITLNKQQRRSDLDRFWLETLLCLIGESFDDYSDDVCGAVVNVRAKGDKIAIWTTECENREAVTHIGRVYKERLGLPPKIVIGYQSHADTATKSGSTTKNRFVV
- procedure details: Fluorescence polarization competition assay for eIF4E binding potency
- conditions used: inhibition of eIF4E/EDA-m7GDP-ATTO-550 binding by 50%; Table 4B calculated values; read-out: IC50
pIC50: −log10 of the molar value.
assay endpoint: pIC50

{"columns": ["mol", "result modifier", "measurement"],
 "data": [
  ["Cc1nc2cc(C(F)(F)F)cc(C#N)c2c(=O)n1CCOc1ncc(Cl)cc1-c1ccnc2c(C(=O)O)csc12", "<", 6.00],
  ["N#Cc1cc2c(=O)n(CCOc3ccc(Cl)cc3-c3ncc(C(=O)O)s3)cnc2cn1", "<", 5.52],
  ["Cc1nc2cc(C(F)(F)F)cc(C#N)c2c(=O)n1CCOc1ccc(Cl)cc1-c1ccnc2c(C(=O)O)cn(C)c12", "=", 7.36],
  ["Cc1cc(-c2cc(Cl)ccc2OCCn2c(C)nc3cc(C(F)(F)F)cc(C#N)c3c2=O)c2scc(C(=O)NCC(=O)O)c2n1", "=", 6.83],
  ["Cc1nc2cc(Cl)c(C(F)F)c(C#N)c2c(=O)n1CCOc1ccc(Cl)cc1-c1ccnc2c(C(=O)NS(C)(=O)=O)csc12", "=", 7.74],
  ["Cc1nc2cc(C(F)(F)F)cc(C(F)(F)F)c2c(=O)n1CCOc1ccc(Cl)cc1-c1ccnc2c(C(=O)O)csc12", "=", 6.96]
]}

---

- assayed system: recombinant eIF4E (Homo sapiens (Human))
- procedure details: Fluorescence polarization competition assay for eIF4E binding potency
- conditions used: inhibition of eIF4E/EDA-m7GDP-ATTO-550 binding by 50%; Table 4B calculated values; read-out: IC50
pIC50: −log10 of the molar value.

{"columns": ["compound", "result modifier", "pIC50"],
 "data": [
  ["Cc1ccc(-c2cc(Cl)ccc2OCCn2c(C)nc3cnc(C4CC4)c(C#N)c3c2=O)c2scc(C(=O)O)c12 [compound 794]", "=", 8.47],
  ["Cc1nc2cc(C(F)(F)F)cc(C#N)c2c(=O)n1CCOc1ccc(Cl)cc1-c1snc2c(C(=O)O)csc12 [compound 265]", "=", 7.11],
  ["Cc1nc2cnc(N(C)C3CCN(CC(C)(F)F)CC3)c(C#N)c2c(=O)n1CC#Cc1ccc(Cl)cc1-c1ccnc2c(C(=O)NS(=O)(=O)c3cccnc3)csc12 [compound 1144]", "=", 7.46],
  ["Cc1cc(-c2cc(Cl)ccc2OCCn2c(C)nc3cnc(O)c(C#N)c3c2=O)c2scc(C(=O)O)c2n1 [compound 1004]", "=", 7.65],
  ["Cc1cc(-c2cc(Cl)ccc2OCCn2c(C)nc3cnc(N4CC(N(C)C)C4)c(C#N)c3c2=O)c2sc(C)c(C(=O)O)c2n1 [compound 1091]", "=", 7.04],
  ["Cc1cc(-c2cc(Cl)ccc2OCCn2c(C)nc3cc(C(F)(F)F)c(-c4cn(C)cn4)c(C#N)c3c2=O)c2scc(C(=O)O)c2n1 [compound 907]", "=", 8.11],
  ["COc1ncc2nc(C)n(CCOc3ccc(Cl)cc3-c3cc(C)nc4c(C(=O)O)csc34)c(=O)c2c1C#N [compound 897]", "=", 8.85],
  ["N#Cc1cc(C(F)(F)F)cc2nc(C(F)F)n(CCOc3ccc(Cl)cc3-c3ccnc4c(C(=O)O)csc34)c(=O)c12 [compound 65]", "=", 7.62],
  ["Cc1cc(-c2cc(Cl)ccc2OCCn2c(C)nc3cc(C(F)F)c(-c4cc(F)cnc4C)c(C#N)c3c2=O)c2scc(C(=O)O)c2n1 [compound 438]", "=", 8.04],
  ["CNc1nc2c(F)ccc(CCOc3ccc(Cl)cc3-c3cccc(C(=O)O)c3)c2c(=O)[nH]1 [compound 171]", "=", 6.71],
  ["Cc1cc(-c2cc(Cl)ccc2OCCn2c(C)nc3cnc(N4CCC4)c(C#N)c3c2=O)c2scc(C(=O)O)c2n1 [compound 435]", "=", 7.78],
  ["Cc1cc(-c2cc(Cl)ccc2OCCn2c(C)nc3cc(C(F)F)c(N(C)C)c(C#N)c3c2=O)c2scc(C(=O)O)c2n1 [439a]", "=", 8.54],
  ["N#Cc1cc2c(=O)n(CCOc3ccc(Cl)cc3-c3cc(C(=O)O)c4cc[nH]c4n3)cnc2cn1 [compound 117]", "<", 5.52],
  ["Cc1nc2cc(C(F)(F)F)cc(C#N)c2c(=O)n1CCOc1ccncc1-c1ccnc2c(C(=O)O)csc12 [compound 285]", "=", 7.14],
  ["N#Cc1cc2c(=O)n(CCOc3ccc(O)cc3-c3cccc(C(=O)O)c3)cnc2cn1 [compound 125]", "<", 5.52],
  ["Cc1cc(-c2cc(Cl)ccc2OCCn2c(C)nc3cc(CN(C)C)c(C)c(C#N)c3c2=O)c2scc(C(=O)O)c2n1 [compound 650]", "=", 7.55],
  ["Cc1nc2cnc(N(C)C3CCN([C@H]4C[C@H](OC(F)F)C4)CC3)c(C#N)c2c(=O)n1CC#Cc1ccc(Cl)cc1-c1ccnc2c(C(=O)O)csc12 [compound 1135]", "=", 7.46],
  ["Cc1nc2c(N(C)C3CC4CCC(C3)N4C)ncc(C#N)c2c(=O)n1CCOc1ccc(Cl)cc1-c1ccnc2c(C(=O)O)csc12 (stereo not drawn) [compound 863]", "=", 7.34]
]}

---

Some molecules, each annotated with its measured IC50.
- assayed system: recombinant eIF4E (Homo sapiens (Human), UniProt P06730)
- procedure details: Fluorescence polarization competition assay for eIF4E binding potency
- conditions used: inhibition of eIF4E/EDA-m7GDP-ATTO-550 binding by 50%; Table 4B calculated values; read-out: IC50
assay endpoint: IC50

{"columns": ["molecule", "measurement"],
 "data": [
  ["Cc1nc2cc(C(F)(F)F)cc(C#N)c2c(=O)n1CCOc1ccc(Cl)cc1-c1cc(C(F)F)nc2c(C(=O)O)csc12", "14.4 nM"],
  ["CCc1cc(-c2cc(Cl)ccc2OCCn2c(C)nc3cc(C(F)(F)F)cc(C#N)c3c2=O)c2scc(C(=O)O)c2n1", "47.7 nM"],
  ["Cc1nc(N2CCN(C)C3CC32)c(C#N)c2c(=O)n(CCOc3ccc(Cl)cc3-c3ccnc4c(C(=O)O)csc34)c(C)nc12 (stereo not drawn)", "11.7 nM"],
  ["Cc1nc2cc(C(F)(F)F)cc(C#N)c2c(=O)n1CCOc1ccc(Cl)cc1-c1cn(C)c(=O)c2c(C(=O)O)csc12", "2.26 nM"],
  ["N#Cc1cc(C(F)(F)F)cc2nc(C#N)n(CCOc3ccc(Cl)cc3-c3cccc(C(=O)O)c3)c(=O)c12", "94.9 nM"],
  ["Cc1sc2c(-c3cc(Cl)ccc3OCCn3c(C)nc4cc(C(F)(F)F)cc(C#N)c4c3=O)ccnc2c1C(=O)O", "101 nM"],
  ["Cc1nc2cnc(N3CCN(CC(F)(F)F)CC3)c(C#N)c2c(=O)n1CC#Cc1ccc(Cl)cc1-c1ccnc2c(C(=O)O)csc12", "10.3 nM"],
  ["COc1cc(-c2cc(Cl)ccc2OCCn2c(C)nc3cc(C(F)(F)F)cc(C#N)c3c2=O)c2scc(C(=O)O)c2n1", "46.4 nM"],
  ["N#Cc1cc(C(F)(F)F)cc2c(Cl)c(Cl)n(CCOc3ccc(Cl)cc3-c3ccnc4c(C(=O)O)csc34)c(=O)c12", "67.2 nM"],
  ["Cc1ccc(Nc2c(Cl)cc3nc(C)n(CCOc4ccc(Cl)cc4-c4cc(C)nc5c(C(=O)O)csc45)c(=O)c3c2C#N)cn1", "39.6 nM"],
  ["CCc1cc(-c2cc(Cl)ccc2OCCn2c(C)nc3cnc(-c4ccccc4)c(C#N)c3c2=O)c2scc(C(=O)O)c2n1", "1.11 nM"],
  ["Cc1cc(-c2cc(Cl)ccc2OCCn2c(C)nc3c(C)nc(-c4cccc(Cl)c4)c(C#N)c3c2=O)c2scc(C(=O)O)c2n1", "10.5 nM"],
  ["Cc1cc(-c2cc(Cl)ccc2OCCn2c(C)nc3cc(C(F)(F)F)c(OCc4ccccn4)c(C#N)c3c2=O)c2scc(C(=O)O)c2n1", "20 nM"],
  ["Cc1nc2cc(C(F)(F)F)c(N3CCNCC3)c(C#N)c2c(=O)n1CCOc1ccc(Cl)cc1-c1ccnc2ccsc12", "4.77 nM"],
  ["Cc1cc(-c2cc(Cl)ccc2OCCn2c(C)nc3cc(C(F)(F)F)c(Cc4ncccc4F)c(C#N)c3c2=O)c2scc(C(=O)O)c2n1", "14.5 nM"]
]}

---

Some compounds, each annotated with its measured IC50.
- assayed system: recombinant eIF4E (Homo sapiens (Human))
- procedure details: Fluorescence polarization competition assay for eIF4E binding potency
- conditions used: inhibition of eIF4E/EDA-m7GDP-ATTO-550 binding; calculated IC50 values, Table 4B; read-out: IC50

{"columns": ["mol", "assayed system", "IC50 (nM)"],
 "data": [
  ["CCN(c1ncc2nc(C)n(CC#Cc3ccc(Cl)cc3-c3ccnc4c(C(=O)NS(=O)(=O)C5CC(F)(F)C5)csc34)c(=O)c2c1C#N)C1CCN(C2COC2)CC1", "recombinant eIF4E (Homo sapiens (Human))", 33.3],
  ["Cc1nc2cnc(N(C)C3CCN(CC(F)(F)C(F)F)CC3)c(C#N)c2c(=O)n1CC#Cc1ccc(Cl)cc1-c1ccnc2c(C(=O)NS(=O)(=O)c3ccncc3)csc12", "recombinant eIF4E (Homo sapiens (Human))", 4.8],
  ["Cc1nc2cnc(N3CCN(CC(F)F)CC3)c(C#N)c2c(=O)n1CC#Cc1ccc(Cl)cc1-c1ccnc2c(C(=O)O)csc12", "recombinant eIF4E (Homo sapiens (Human))", 23.2]
]}

These measurements were taken from patent US11286268B1.
